Items are presented alongside their recorded functional reporter gene assay (% inhibition), 0.2 µg/mL mAb.
Target: T1, human IL-1RAcP on 293T/17-FR cells (human, UniProt Q9NPH3 21-570)
T1 sequence (looked up): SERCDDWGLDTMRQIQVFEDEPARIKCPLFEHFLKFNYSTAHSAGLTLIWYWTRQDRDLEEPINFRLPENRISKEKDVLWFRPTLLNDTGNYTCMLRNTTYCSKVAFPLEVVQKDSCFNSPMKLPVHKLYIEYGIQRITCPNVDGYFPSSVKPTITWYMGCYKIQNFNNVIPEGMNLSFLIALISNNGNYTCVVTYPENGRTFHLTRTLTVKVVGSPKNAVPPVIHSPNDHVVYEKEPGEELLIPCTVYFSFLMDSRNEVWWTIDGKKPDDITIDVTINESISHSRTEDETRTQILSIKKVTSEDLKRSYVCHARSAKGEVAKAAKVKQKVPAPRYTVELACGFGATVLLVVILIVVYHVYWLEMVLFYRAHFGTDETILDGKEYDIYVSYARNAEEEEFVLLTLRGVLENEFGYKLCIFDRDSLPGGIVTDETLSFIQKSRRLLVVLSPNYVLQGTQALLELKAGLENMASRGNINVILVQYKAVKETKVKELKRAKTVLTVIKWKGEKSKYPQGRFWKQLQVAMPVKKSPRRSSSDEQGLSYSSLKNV
Test: cell-based or functional assay
Form entry: value (%) — number only.

Some binders with known functional reporter gene assay (% inhibition), 0.2 µg/mL mAb results, for comparison:
P013.S.02.B.E01 (antibody, V domains shown, rabbit monoclonal antibody; also called P013.A.00013.G07) VH: QSLEESGGRLVTPGTPLTLTCTVSGFSLSIYGMGWVRQAPGEGLEWIGSISSGGSTYYATWAKGRFTISKTSSTTLDLKITSPTTEDTATYFCVRSDGYTNGDYDTYFNLWGQGTLVTVS VL: DIVMTQTPASVSEPVGGTVTIRCQASQSISSWLSWYQQKPGQPPKLLIYQASALASGVSSRFIGSGYGTEFTLTISGVQSEDAATYYCQCTYGIGSNSDYGVAFGGGTEVVVK    14
P013.S.02.B.H02 (antibody, V domains shown, rabbit monoclonal antibody; also called P013.A.00015.B10) VH: QSLEESGGRLVTPGTPLTLTCTVSGFSLSSCAMIWVRQAPGKGLEWIGFIGRGGSTWYASWVNGRFTISKTSTTVDLKITSPTTEDTATYFCARDGDFSDYYTFNLWGQGTLVTVSS VL: DVVMTQTPASVSEPVGGTVTIKCQASQNIGSNLAWYQQKPGQPPKLLIYGASTLASGVPSRFSGSGSGTEFTLTISGVQSADATTYYCQCSGYDTTGVFPFGGGSEVVVR    -2
P013.S.02.B.D04 (antibody, V domains shown, rabbit monoclonal antibody; also called P013.A.00086.A06) VH: QSLEESGGDLVQPGGSLTLTCKASGFSFSASYWICWVRQAPGKGLEWIGCIYIGGGGRYYASWAKGRFTISKTSSTTVTLQMTSLTAADTATYFCARDPVTSGSDYVYDLWGPGTLVTVAS VL: AYDMTQTPASVEVAVGGTVTIKCQASESISTWLAWYQQKPGQPPNLLIYRASTLASGVPSRFYGSGYGTEFTLTISGVESADAATYYCQQGYTVNNIDNVFGGGTEVVVK    19
P013.S.01.B.A06 (antibody, V domains shown, rabbit monoclonal antibody; also called P013.A.00133.B12) VH: QSLEESGGRLVTPGTPLTLSCKVSGFSLSSYDMSWVRQTPGKGLEWIGTIYIGGTTAYASWPKGRFTISKTSTTVDLKITSPTKEDTATYFCARLQGANYYNSLALWGQGTLVTVSS VL: DVVMTQTPASVSEPVGGTVTIKCQASQSIYSFLSWYQQKPGQPPKLLIYAASDLESGVPSRFSGSGYGTEFTLTISDLESADAATYYCQCNYIIDYGAFGGGTEVVVK    85

Could you now look at the following binder, please?
QUERY: I'd like to know its functional reporter gene assay (% inhibition), 0.2 µg/mL mAb. The binder in question is P013.S.02.B.B03 (antibody, V domains shown, rabbit monoclonal antibody; also called P013.A.00045.F11) VH: QEQLEESGGDLVKPEGSLTLTCTASGFSFSSNYWICWVRQAPGKGLELIACIYTSTGNTWYASWAKGRFTISKTSSTTVTLQMTSLTVADTATYFCARDLLVVTSFNLWGQGTLVTVSS VL: ALVMTQTPSPVSAAVGGTVTINCQASEDIYSNLAWFQQKPGQPPKLLIYGASTLASGVPSRFSGSGSGTEFTLTISGVQSDDAATYYCLGVCTDISTDDLYNAFGGGTELVVK
RESULT: 31
